Test: Solubility in solvent containing dipropylene glycol
Assay type: physicochemical
Conditions: 25 °C, water, thermodynamic from solid

Smiles text: Oc1ccc(C=Cc2cc(O)cc(O)c2)cc1
solubility thermodynamic at 15 h: 30 µg/mL

###

Test: Solubility in water
Format: physicochemical
Conditions: 25 °C, water, thermodynamic from solid

Smiles text: Oc1ccc(C=Cc2cc(O)cc(O)c2)cc1
solubility thermodynamic at 20 h / µg/mL: 30
